Give TGI for every item shown.
Test system: SN12C renal
Assay: NCI tumour cell line growth inhibition, 48 h

Data request: GET TGI | system: SN12C renal | item: O=C(Nc1ccc(I)cc1)c1cccc([N+](=O)[O-])c1O
Data returned: > 100 µM

Data request: GET TGI | system: SN12C renal | item: C=C1C(=O)c2cc3c(cc2C(c2cc(OC)c(OC)c(OC)c2)[C@@H]1C(=O)O)OCO3 (stereo not given in full)
Data returned: > 100 µM

Data request: GET TGI | system: SN12C renal | item: O=C(Cc1ccccc1)N/N=C(/c1nc2ccc([N+](=O)[O-])cc2[nH]c1=O)C(O)c1ccc(C(O)/C(=N/NC(=O)Cc2ccccc2)c2nc3ccc([N+](=O)[O-])cc3[nH]c2=O)cc1 (stereo not given)
Data returned: > 100 µM

Data request: GET TGI | system: SN12C renal | item: O=C(CCN1CCC(CCO)CC1)Nc1ccc2c(c1)C(=O)c1ccc(NC(=O)CCN3CCC(CCO)CC3)cc1C2=O
Data returned: > 100 µM

Data request: GET TGI | system: SN12C renal | item: Cc1ccc(NC(=O)/C(=N\NC(N)=S)C(C#N)c2ccccc2C)cc1C (stereo not given)
Data returned: > 100 µM

Data request: GET TGI | system: SN12C renal | item: COC(=O)c1nc(C(=O)OC)c2c([nH]c3ccccc32)c1C(=O)OC
Data returned: > 100 µM

Data request: GET TGI | system: SN12C renal | item: COc1cc2c3c(n(CCCN4CCCNCC4)c(=O)c2cc1OC)-c1cc2c(cc1C3=O)OCO2
Data returned: 1.28 µM

Data request: GET TGI | system: SN12C renal | item: CN(CSc1ccc(Cl)cc1)c1ccc(CSc2ccc(Cl)cc2)cc1
Data returned: 15.9 µM

Data request: GET TGI | system: SN12C renal | item: NC(=S)N/N=C(\CCC(=O)Nc1ccccc1[N+](=O)[O-])CC(=O)c1ccco1
Data returned: > 100 µM

Data request: GET TGI | system: SN12C renal | item: O=C1/C(=C/c2ccc(Cl)cc2)N=C(c2ccccc2)N1/N=C/c1ccccc1O
Data returned: > 100 µM

Data request: GET TGI | system: SN12C renal | item: COC(=O)[C@]1(C)CCC[C@]2(C)[C@@H](CCC(=O)C(C)C)[C@]3(C=O)O[C@@H]3C[C@H]21
Data returned: > 100 µM

Data request: GET TGI | system: SN12C renal | item: O=c1nc2c(c(-c3ccc(F)cc3)[nH]1)COC/C2=C\c1ccc(F)cc1
Data returned: > 100 µM

Data request: GET TGI | system: SN12C renal | item: O=C(CCc1ccc(O)c(O)c1)NCCc1cc(O)c(O)c(O)c1
Data returned: 31.9 µM

Data request: GET TGI | system: SN12C renal | item: CC(C)(CN1CCCCC1)C(=O)CC(SCCN)c1ccc(Cl)cc1 (stereo not given)
Data returned: 3.42 µM

Data request: GET TGI | system: SN12C renal | item: O=C(Nc1ccccc1)c1cccc([N+](=O)[O-])c1
Data returned: > 100 µM

Data request: GET TGI | system: SN12C renal | item: Cc1c(-c2nc(N)c(C#N)c(N)c2C#N)c(=O)oc2ccccc12
Data returned: > 100 µM

Data request: GET TGI | system: SN12C renal | item: CS(=N)(=O)CCC(N)P(=O)(O)O (stereo not given)
Data returned: > 100 µM

Data request: GET TGI | system: SN12C renal | item: Cc1cc(C(O)(c2ccc(Nc3ccccc3)cc2)c2ccc(Nc3ccc(S(=O)(=O)O)cc3)cc2)ccc1N (stereo not given)
Data returned: 9.12 µM

Data request: GET TGI | system: SN12C renal | item: CCC(c1ccc(OC)cc1)C1NC(=S)NC1=O (stereo not given)
Data returned: > 50 µM

Data request: GET TGI | system: SN12C renal | item: COc1ccc(/C=C/C(=O)c2ccc(Nc3nc(Nc4ccc(F)cc4)nc(Nc4ccc(Cl)cc4)n3)cc2)cc1
Data returned: > 100 µM

Data request: GET TGI | system: SN12C renal | item: Cn1nc(-c2ccccc2)c2c(-c3ccccc3)c3cc(Cl)ccc3nc21
Data returned: > 100 µM

Data request: GET TGI | system: SN12C renal | item: Fc1ccc(C2SCc3nc4ccccc4n32)cc1F (stereo not given)
Data returned: > 100 µM

Data request: GET TGI | system: SN12C renal | item: CCOC(=O)C1(C#N)C(C#N)(C#N)C1(C#N)C#N
Data returned: > 100 µM

Data request: GET TGI | system: SN12C renal | item: C/C1=C/C[C@@H](/C(C)=C/c2csc(C)n2)OC(=O)C[C@H](O)C(C)(C)C(=O)[C@H](C)[C@@H](O)[C@@H](C)CCC1
Data returned: 0.209 µM

Data request: GET TGI | system: SN12C renal | item: NC(=N\N=C/c1ccc(Cl)cc1Cl)/C(N)=N\N=C/c1ccc(Cl)cc1Cl
Data returned: > 100 µM

Data request: GET TGI | system: SN12C renal | item: CN1CCN(c2ccc3[nH]c(C4=C(O)C(=O)[C@@H]5C(=C4O)N=C(CO)N5C)nc3n2)CC1
Data returned: > 100 µM

Data request: GET TGI | system: SN12C renal | item: N#C/C(=C\c1ccc(F)cc1)n1nc2cccc(F)c2n1
Data returned: > 100 µM

Data request: GET TGI | system: SN12C renal | item: CCc1nc2ccccc2c(=O)n1/N=C(\N=Nc1ccc(Cl)cc1)c1ccccc1
Data returned: > 100 µM

Data request: GET TGI | system: SN12C renal | item: CCOC(=O)Nc1n[nH]nc1Cl
Data returned: > 100 µM

Data request: GET TGI | system: SN12C renal | item: COc1cc(C2C(C(=O)O)=C(COC(C)=O)Oc3cc4c(cc32)OCO4)cc(OC)c1OC(C)=O (stereo not given)
Data returned: > 100 µM

Data request: GET TGI | system: SN12C renal | item: C=C1c2[nH]c3ccccc3c2CC(C(=O)O)N1C(O)c1ccc(S(=O)(=O)O)cc1 (stereo not given)
Data returned: > 100 µM

Data request: GET TGI | system: SN12C renal | item: O=C(O)c1cccc(OCCOc2cccc(C(=O)O)c2[N+](=O)[O-])c1[N+](=O)[O-]
Data returned: > 100 µM

Data request: GET TGI | system: SN12C renal | item: C#CCn1c(=O)c2cccnc2n(CC#C)c1=O
Data returned: > 100 µM

Data request: GET TGI | system: SN12C renal | item: Cn1c2cc([N+](=O)[O-])ccc2c(=O)c2c(O)cc3c(c21)C=CC(C)(C)O3
Data returned: > 100 µM

Data request: GET TGI | system: SN12C renal | item: O=c1[nH]c2ccccc2n2cc3ccccc3c12
Data returned: 6.32 µM

Data request: GET TGI | system: SN12C renal | item: Cc1cc(C)c(S(=O)(=O)N(CCCN)OCCON(CCCN)S(=O)(=O)c2c(C)cc(C)cc2C)c(C)c1
Data returned: > 100 µM

Data request: GET TGI | system: SN12C renal | item: Nc1nc(Br)nc2ncn(C3CC(O)C(CO)O3)c12 (stereo not given)
Data returned: > 100 µM

Data request: GET TGI | system: SN12C renal | item: COc1ccc(NS(=O)c2c(C)cc(C)cc2C)cc1 (stereo not given)
Data returned: > 100 µM

Data request: GET TGI | system: SN12C renal | item: COC(=O)[C@@H](OC(C)=O)[C@@H](OC(C)=O)c1nnc2ccc(Cl)nn12
Data returned: > 100 µM

Data request: GET TGI | system: SN12C renal | item: Cn1c(=O)c2[nH]c(CCCc3ccc([N+](=O)[O-])cc3)nc2n(C)c1=O
Data returned: > 100 µM
